system: SNB-75 CNS; experiment: NCI-60 one-dose screen, 48 h (100 = growth as untreated, 0 = no growth, -100 = all killed); conditions: 10 µM unless noted
About 83,000 compounds went through this panel and 20% of them were active in at least one assay; those are over-represented in the sample as a whole. The source made the active and inactive calls. Rule for the calls: active = growth percent below 10; inactive = the rest.
quantityName: growth

For orientation, consider the following solved cases.
Prompt: Report growth for O=C(NNc1nc2cc(F)c(F)cc2n2c(CN3CC4CNCC4C3)ccc12)c1cnccn1 (configuration not stated) tested on SNB-75 CNS.
Completion: 60% (inactive)

Prompt: // repeat for CNC(=O)c1cc(Oc2ccc3nc(NC(=O)c4ccc(N5CCOCC5)c(C(F)(F)F)c4)sc3c2)ccn1 and report
Completion: 96.2% (inactive)

Prompt: // repeat for CC1(C)[C@@H](O)CC[C@]2(C)[C@H]3CC[C@@H]4[C@H]5[C@H](C(=O)/C=C\c6ccc([N+](=O)[O-])cc6)CC[C@]5(O)CC[C@@]4(C)[C@]3(C)CC[C@@H]12 and report
Completion: 42.1% (inactive)

Prompt: // repeat for COc1ccc(/C=N/NC(=O)c2cn(C3CC3)c3c(OC)c(N4CC5CCCNC5C4)c(F)cc3c2=O)cc1 (configuration not stated) and report
Completion: 93.1% (inactive)

Prompt: // repeat for COc1c(N2CC3CCCNC3C2)c(F)cc2c(=O)c(C(=O)N/N=C/c3ccc(Br)cc3)cn(C3CC3)c12 (configuration not stated) and report
Completion: 103% (inactive)

Continuing:
Prompt: Report growth for COc1cc(OC)c(/C=C/S(=O)(=O)Cc2ccc(OC)c(NC(=O)CCC(=O)NO)c2)c(OC)c1 tested on SNB-75 CNS.
Completion: 31.6% (inactive)

Prompt: // repeat for C=C(C)[C@@H]1CC[C@]2(COC)CC[C@]3(C)[C@H](CC[C@@H]4[C@@]5(C)CCCNC(C)(C)[C@@H]5CC[C@]43C)[C@@H]12 and report
Completion: 76.3% (inactive)

Prompt: // repeat for Nc1ncc(-c2ccc(NS(=O)(=O)c3ccc(Cl)c(Cl)c3)cc2)[nH]1 and report
Completion: 90.9% (inactive)

Prompt: // repeat for Cc1noc(C)c1CSc1nc2ccccc2n1-c1ccccc1 and report
Completion: 30.9% (inactive)

Prompt: // repeat for O=C(CNc1nc(-c2cccc([N+](=O)[O-])c2)cs1)Nc1cccc(Cl)c1 and report
Completion: 101% (inactive)

Prompt: // repeat for Cn1ccnc1C(=O)/C=C/c1ccc(CNC(=O)c2ccc(Cl)cc2)cc1 and report
Completion: 56% (inactive)

---

# growth per entry
tested on: MALME-3M melanoma; assay: NCI-60 one-dose screen, 48 h (100 = growth as untreated, 0 = no growth, -100 = all killed); conditions: 10 µM unless noted
The panel holds about 83,000 compounds, 20% with a hit somewhere; the sample as a whole holds those more often. Active and inactive are the calls of the source. The calls were made as follows: active = growth percent below 10; inactive = the rest.

For orientation, consider the following solved cases.
Prompt: Bench note: what growth did O=C1/C(=C/C=C/c2ccco2)SC(=S)N1c1ccccc1 show?
Completion: 15.5% (inactive)

Prompt: // repeat for COc1cc(-c2nn(C(C)(C)C)cc2-c2ccnc(NCCCNS(=O)(=O)c3ccc(F)cc3)n2)ccc1Cl and report
Completion: 86.1% (inactive)

Prompt: // repeat for O=C(NCc1ncc[nH]1)c1ccc(-c2nc3ccc4[nH]ncc4c3c3c2CCCC3)cc1 and report
Completion: -14.7% (active)

Prompt: // repeat for COc1ccc(CCOc2cc3c(cc2OC)CCN(C(=O)NCc2cocn2)C3c2ccc(C)cc2C)cc1 (centres undefined) and report
Completion: 52.2% (inactive)

Prompt: // repeat for CC1(C)[C@@H](O)CC[C@]2(C)[C@H]3CC[C@@H]4[C@H]5[C@H](C(=O)/C=C\c6ccccn6)CC[C@]5(O)CC[C@@]4(C)[C@]3(C)CC[C@@H]12 and report
Completion: 56.4% (inactive)

Continuing:
Prompt: Bench note: what growth did COc1ccccc1N1CCN(C2=CC(=O)C(C)=C(C)C2=O)CC1 show?
Completion: 104% (inactive)

---

system: UACC-62 melanoma; assay: NCI-60 one-dose screen, 48 h (100 = growth as untreated, 0 = no growth, -100 = all killed); details: 10 µM unless noted
Compounds without any hit were thinned out: in the full panel of roughly 83,000, 20% have a hit.
# growth per entry
Response body: numeric value in %, unit text excluded.

For orientation, consider the following solved cases.
Prompt: Report growth for C#CCOc1ccc(/C=N\Nc2nc(-c3ccc(C)cc3)cs2)cc1OC tested on UACC-62 melanoma.
Completion: 74.7

Prompt: // repeat for CC1=NC2=NN3C(=NN2C(c2ccccc2)=C1)N=NC(c1ccc(Br)cc1)=C3c1ccc(Br)cc1 and report
Completion: 89.9

Prompt: // repeat for COc1cc(/C=N/NC(=O)c2cn(C3CC3)c3c(OC)c(N4CC5CCCNC5C4)c(F)cc3c2=O)ccc1O (centres undefined) and report
Completion: 91.5

Prompt: // repeat for CCC(NC(c1cc2cccc3ccc4cccc1c4c32)c1nnnn1C(C)(C)C)C1CCCCC1 (centres undefined) and report
Completion: 49.6

Prompt: // repeat for CCCCCc1ccc(S(=O)(=O)Nc2cccc(-c3csc(NC(=O)CCCCCN4CCN(C)CC4)n3)c2)cc1 and report
Completion: 63.2

Continuing:
Prompt: Report growth for COc1ccc(C(=O)Nc2ncc(Cc3ccccc3Cl)s2)cc1 tested on UACC-62 melanoma.
Completion: 35.7

Prompt: // repeat for Clc1nc2ccccc2nc1-c1nnc(C2CCCCC2)o1 and report
Completion: 96.4

Prompt: // repeat for Fc1ccc(-c2cc3nc(C(Cl)Cl)nc(-c4ccc(F)cc4)n3n2)cc1 and report
Completion: 44

Prompt: // repeat for CS(=O)(=O)Nc1cc(-c2ccc3ncc(C#N)c(NCc4ccccc4F)c3c2)cnc1Cl and report
Completion: -20.7

---

System: SF-539 CNS
Experiment: NCI-60 one-dose screen, 48 h (100 = growth as untreated, 0 = no growth, -100 = all killed)
Details: 10 µM unless noted
Procedure: Cells are grown in 96 well plates and exposed to the test compound for 48 hours. Compounds are tested at a single concentration, which is 10^-5 M for most compounds. The reported endpoint is percent growth (GI% or GIPRCNT), where numbers from 0 - 100% represent growth inhibition, and numbers from -100% - 0 represent cell death. For example, a value of 40 represents 60% growth inhibition. A value of 0 means no net growth occurred over the course of the experiment. […]
This is part of a sample that, as a whole, favours compounds with a hit. Of some 83,000 tested, about 20% had one in any assay.
Note to self: values exactly at 50% are t. So growth at or above 50% is t, below is f.

Take a look at these entries with their results.
Prompt: API: above_or_equal(metric=growth, cutoff=50%) for item O=S(=O)(Nc1ccc(I)cc1Cl)c1ccc(-c2cnc(C3CC3)o2)cc1
Completion: f

Prompt: // repeat for O=C(CN1CCN(c2cc(=O)n(-c3ccccc3)c3ccccc23)CC1)Nc1cccc(C(F)(F)F)c1 and report
Completion: t

Prompt: // repeat for CS(=O)(=O)Nc1cc(-c2ccc3ncc(C#N)c(NCc4ccccc4O)c3c2)cnc1Cl and report
Completion: f

Prompt: // repeat for CN1CCC(n2cc(Nc3ncc4c(=O)n(-c5c(Cl)cccc5Cl)cc(Br)c4n3)cn2)CC1 and report
Completion: f

Prompt: // repeat for CCCCCc1ccc(S(=O)(=O)Nc2cccc(-c3csc(NCCN4CCN(C)CC4)n3)c2)cc1 and report
Completion: t

Continuing:
Prompt: API: above_or_equal(metric=growth, cutoff=50%) for item COc1ccc(-c2cc(-c3ccc(Cl)cc3)c(C#N)c(=O)n2Cc2ccc(C(=O)O)cc2)cc1
Completion: t

Prompt: // repeat for CC(C)(C)c1ccc(-c2nnc(-c3nc4ccccc4nc3Cl)o2)cc1 and report
Completion: t

Prompt: // repeat for O=C(Nc1nc2ccc([N+](=O)[O-])cc2s1)Nc1ccccc1Br and report
Completion: f

---

test system: HS 578T breast; assay: NCI-60 one-dose screen, 48 h (100 = growth as untreated, 0 = no growth, -100 = all killed); conditions: 10 µM unless noted
This is part of a sample that, as a whole, favours compounds with a hit. Of some 83,000 tested, about 20% had one in any assay.
quantityName: growth (%)
Response body: numeric value in %, unit text excluded.

For orientation, consider the following solved cases.
Prompt: Bench note: what growth did O=C1/C(=C/C=C/c2ccco2)SC(=S)N1c1ccccc1 show?
Completion: 102

Prompt: // repeat for O=C(NNc1nc2cc(F)ccc2n2cccc12)c1ccncn1 and report
Completion: 42.8

Prompt: // repeat for COc1ccc2c(c1)c(-c1cc(N)n3nc(-c4cn(C)c5ccc(OC)cc45)cc3n1)cn2C and report
Completion: 110

Prompt: // repeat for COc1ccc2[nH]cc(/C=N/Nc3nc4ccccc4s3)c2c1 and report
Completion: 60.6

Prompt: // repeat for Cc1c(F)cc(C(N)=O)cc1NCC(=O)Nc1ccc([N+](=O)[O-])cc1 and report
Completion: 88.4

Continuing:
Prompt: Bench note: what growth did O=C(CNc1nc(-c2cccc([N+](=O)[O-])c2)cs1)Nc1cccc(Cl)c1 show?
Completion: 110

Prompt: // repeat for O=C(c1ccc(O)c(C(=O)N2Cc3ccc(OCCC[P+](c4ccccc4)(c4ccccc4)c4ccccc4)cc3C2)c1)N1Cc2cccc(F)c2C1 and report
Completion: 72.4

Prompt: // repeat for CC(=O)c1ccc(Nc2nc(SCC(C)C)nc(-c3ccc(F)cc3)c2C#N)cc1 and report
Completion: 122

Prompt: // repeat for COc1ccc(Cn2cc3c(c2-c2cc(OC)c(OC)c(OC)c2)CCc2c(CN4CCOCC4)noc2-3)cc1 and report
Completion: 15.3

Prompt: // repeat for NS(=O)(=O)c1ccc(-n2cc(CN3CCCCC3)nn2)cc1 and report
Completion: 100

Data credit: PubChem BioAssay (NCI)
